// provenance: paper PMC6409085

// values below are reported Fluorescence intensity, fluorescence competitive binding assay, OBP11
Molecular target: SfurOBP11 (Sogatella furcifera, UniProt V5T6E3)
Sequence (V5T6E3 entry or part of it): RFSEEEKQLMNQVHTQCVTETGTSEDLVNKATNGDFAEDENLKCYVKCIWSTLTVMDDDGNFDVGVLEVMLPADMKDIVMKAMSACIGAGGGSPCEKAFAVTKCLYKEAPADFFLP
Assay: biochemical
Assay type: binding
Conditions: ligand concentration 10, replicate 3
Experimental: Thirty-six rice odorants ([He et al., 2014]; [Wang et al., 2017]) and 1-N-phenyl-naphthylamine (1-NPN) were purchased from Sigma-Aldrich (St Louis, MO, USA). […] Fluorescence competitive binding assays were performed on Tecan Spark 10M (Tecan Group Ltd., Männedorf, Switzerland) with the F96 Black ELIAS Plate (Sangon) ([Khuhro et al., 2017]; [Liu et al., 2017]). The solutions were excited at 337 nm and emission spectra were recorded between 390 and 490 nm. […]
result_type: Fluorescence intensity, fluorescence competitive binding assay, OBP11

| compound | tgt | endpoint_value |
| --- | --- | --- |
| CCCCCCCC [n-octane] | SfurOBP11 (Sogatella furcifera, UniProt V5T6E3) | 27163 |
| C[C@@H]1CC[C@H]2C(C)(C)[C@H]3C[C@@]12CC[C@@]3(C)O [cedrol] | SfurOBP11 (Sogatella furcifera, UniProt V5T6E3) | 36351 |
| CCCCCCCCCCCCCCCC(=O)OC [MH(methyl hexadecanoate)] | SfurOBP11 (Sogatella furcifera, UniProt V5T6E3) | 42267 |
| CCCCCC(C)=O [2-heptanone] | SfurOBP11 (Sogatella furcifera, UniProt V5T6E3) | 22684 |
| O=Cc1ccccc1 [benzaldehyde] | SfurOBP11 (Sogatella furcifera, UniProt V5T6E3) | 24544 |
| CCCCCCCCCCCCO [lauryl alcohol] | SfurOBP11 (Sogatella furcifera, UniProt V5T6E3) | 23087 |
| C/C(=C\CO)CCC[C@H](C)CCC[C@H](C)CCCC(C)C [plant alcohol] | SfurOBP11 (Sogatella furcifera, UniProt V5T6E3) | 20338 |
| CCCCCCC=CCO [2-nonen-1-ol] | SfurOBP11 (Sogatella furcifera, UniProt V5T6E3) | 33818 |
| Cc1cc(C(C)(C)C)c(O)c(C(C)(C)C)c1 [BHT(2,6-di-tert-butyl-4-methylphenol)] | SfurOBP11 (Sogatella furcifera, UniProt V5T6E3) | 20536 |
| CC/C=C\CCO [(Z)-3-hexenol] | SfurOBP11 (Sogatella furcifera, UniProt V5T6E3) | 19973 |
| CC(C)COC(=O)CCCCC(=O)OCC(C)C [DA(diisobutyl adipate)] | SfurOBP11 (Sogatella furcifera, UniProt V5T6E3) | 22919 |
| CCCCCCCCCCOCCCCCCCCCC [didecyl ether] | SfurOBP11 (Sogatella furcifera, UniProt V5T6E3) | 61467 |
| CCCCCCCCCCCCC=O [tridecanal] | SfurOBP11 (Sogatella furcifera, UniProt V5T6E3) | 25032 |
| CCCCCCCCCCCCCCCCCC [n-octadecane] | SfurOBP11 (Sogatella furcifera, UniProt V5T6E3) | 31039 |
| OC1CCCCC1 [cyclohexanol] | SfurOBP11 (Sogatella furcifera, UniProt V5T6E3) | 24498 |
| C=C/C(C)=C/C/C=C(\C)CCC=C(C)C [α-farnesene] | SfurOBP11 (Sogatella furcifera, UniProt V5T6E3) | 33819 |

###

Target: SfurOBP11 (Sogatella furcifera, UniProt V5T6E3)
Assay: biochemical
Assay type: binding
Settings: ligand concentration 8, replicate 3
result_type: Fluorescence intensity, fluorescence competitive binding assay, OBP11

| compound | tgt | endpoint_value |
| --- | --- | --- |
| CCCCCCCC=O [octanal] | SfurOBP11 (Sogatella furcifera, UniProt V5T6E3) | 29900 |
| C[C@@H]1CC[C@H]2C(C)(C)[C@H]3C[C@@]12CC[C@@]3(C)O [cedrol] | SfurOBP11 (Sogatella furcifera, UniProt V5T6E3) | 34811 |
| C=C1CC/C=C(\C)CC[C@@H]2[C@@H]1CC2(C)C [β-caryophyllene] | SfurOBP11 (Sogatella furcifera, UniProt V5T6E3) | 27203 |
| C=C/C(C)=C/C/C=C(\C)CCC=C(C)C [α-farnesene] | SfurOBP11 (Sogatella furcifera, UniProt V5T6E3) | 31984 |
| CCCCCCCC [n-octane] | SfurOBP11 (Sogatella furcifera, UniProt V5T6E3) | 27821 |
| CCCCCCCCCCCCO [lauryl alcohol] | SfurOBP11 (Sogatella furcifera, UniProt V5T6E3) | 24599 |
| C=CC(C)(O)CCC=C(C)C (stereo not drawn) [linalool] | SfurOBP11 (Sogatella furcifera, UniProt V5T6E3) | 34940 |
| OC1CCCCC1 [cyclohexanol] | SfurOBP11 (Sogatella furcifera, UniProt V5T6E3) | 24499 |
| CCCCCCCCCCCCCC [n-tetradecane] | SfurOBP11 (Sogatella furcifera, UniProt V5T6E3) | 31318 |
| CCCCCC=O [caproaldehyde] | SfurOBP11 (Sogatella furcifera, UniProt V5T6E3) | 26691 |
| O=C(c1ccccc1)c1ccccc1 [benzophenone] | SfurOBP11 (Sogatella furcifera, UniProt V5T6E3) | 18308 |
| CCCCCCCCCCCCCCCC(=O)OC [MH(methyl hexadecanoate)] | SfurOBP11 (Sogatella furcifera, UniProt V5T6E3) | 37911 |
| c1ccc2ccccc2c1 [naphthalene] | SfurOBP11 (Sogatella furcifera, UniProt V5T6E3) | 30051 |
| CCCCCCCCCCOCCCCCCCCCC [didecyl ether] | SfurOBP11 (Sogatella furcifera, UniProt V5T6E3) | 57390 |
| COC(=O)c1ccccc1 [benzoic acid methylester] | SfurOBP11 (Sogatella furcifera, UniProt V5T6E3) | 24489 |
| CC/C=C\CCO [(Z)-3-hexenol] | SfurOBP11 (Sogatella furcifera, UniProt V5T6E3) | 21554 |
| CCCCCCCCC=O [nonanal] | SfurOBP11 (Sogatella furcifera, UniProt V5T6E3) | 30513 |
| CCCCCCCCCCCCCCCCCC [n-octadecane] | SfurOBP11 (Sogatella furcifera, UniProt V5T6E3) | 31279 |

###

Target: SfurOBP2 (Sogatella furcifera, UniProt V5T759)
Sequence (V5T759 entry or part of it): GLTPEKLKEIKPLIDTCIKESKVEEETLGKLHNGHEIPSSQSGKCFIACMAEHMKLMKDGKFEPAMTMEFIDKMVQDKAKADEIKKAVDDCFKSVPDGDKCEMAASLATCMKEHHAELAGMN
Test: biochemical
Assay type: binding
Conditions: ligand concentration 2 (unit not given), replicate column 1 of 3
result_type: Fluorescence competitive binding assay, OBP2 (raw fluorescence reading)

| compound | tgt | endpoint_value |
| --- | --- | --- |
| CC/C=C\CCO [(Z)-3-hexenol] | SfurOBP2 (Sogatella furcifera, UniProt V5T759) | 19770 |
| COC(=O)c1ccccc1 | SfurOBP2 (Sogatella furcifera, UniProt V5T759) | 20302 |
| CCCCCC=O | SfurOBP2 (Sogatella furcifera, UniProt V5T759) | 19948 |
| OC1CCCCC1 | SfurOBP2 (Sogatella furcifera, UniProt V5T759) | 20258 |
| CCCCCCCCCCCCC=O | SfurOBP2 (Sogatella furcifera, UniProt V5T759) | 15375 |
| C=CC(C)(O)CCC=C(C)CCC=C(C)C (mixture of isomers) | SfurOBP2 (Sogatella furcifera, UniProt V5T759) | 16746 |
| CCCCCCCCCCOCCCCCCCCCC | SfurOBP2 (Sogatella furcifera, UniProt V5T759) | 18915 |
| O=Cc1ccccc1 | SfurOBP2 (Sogatella furcifera, UniProt V5T759) | 15507 |
| CC1=CC[C@@H](C(C)(C)O)CC1 | SfurOBP2 (Sogatella furcifera, UniProt V5T759) | 18212 |

###

Biological target: SfurOBP11 (Sogatella furcifera, UniProt V5T6E3)
Assay: biochemical
Assay type: binding
Settings: ligand concentration 20, replicate 2
// values below are reported Fluorescence intensity, fluorescence competitive binding assay, OBP11
result_type: Fluorescence intensity, fluorescence competitive binding assay, OBP11

| molecule | endpoint_value |
| --- | --- |
| CCCCCCCCCCCCCCCCCCC | 29929 |
| CC1=CC[C@@H](C(C)(C)O)CC1 | 25350 |
| CCCCCCCCCCCCC=O | 31721 |
| CCCCCCCCCCOCCCCCCCCCC | 75326 |
| CCCCCCC=CCO | 28576 |
| CCCCCCCCCCCCCCCC | 23600 |
| C=C/C(C)=C/C/C=C(\C)CCC=C(C)C | 35048 |
| OC1CCCCC1 | 23927 |
| CC/C=C\CCO [(Z)-3-hexenol] | 15707 |
| CCCCCCCCCCCCCCCC(=O)OC [MH(methyl hexadecanoate)] | 62432 |
| CCCCCCCC | 26798 |
| CC(=O)/C=C/C1=C(C)CCCC1(C)C | 17841 |

###

// values below are reported Fluorescence competitive binding assay, OBP2 (raw fluorescence reading)
Target: SfurOBP2 (Sogatella furcifera, UniProt V5T759)
Experiment: biochemical
Format: binding
Settings: ligand concentration 14 (unit not given), replicate column 3 of 3
result_type: Fluorescence competitive binding assay, OBP2 (raw fluorescence reading)

| compound | endpoint_value |
| --- | --- |
| CCCCCCCC [n-octane] | 12746 |
| O=C(c1ccccc1)c1ccccc1 [benzophenone] | 12979 |
| OC1CCCCC1 [cyclohexanol] | 14859 |
| CCCCCCCCCCCCCCCCCC [n-octadecane] | 21239 |
| C=C(C)C1CC=C(C)CC1 (single isomer, unassigned; (+)) [(+)-limonene] | 13912 |
| C[C@@H]1CC[C@H]2C(C)(C)[C@H]3C[C@@]12CC[C@@]3(C)O [cedrol] | 24806 |
| CCCCCCCCCCCCCCCCCCC [n-nonadecane] | 21973 |
| CCC/C=C/CO [(E)-2-hexenol] | 13447 |
